The values you see were collected from patent US8785488B2.

- Target Under Test: human TGR5 (h-TGR5) (Homo sapiens, UniProt Q8TDU6)
- Construct: expressed in transfected cells
- Sequence (Q8TDU6 1-330): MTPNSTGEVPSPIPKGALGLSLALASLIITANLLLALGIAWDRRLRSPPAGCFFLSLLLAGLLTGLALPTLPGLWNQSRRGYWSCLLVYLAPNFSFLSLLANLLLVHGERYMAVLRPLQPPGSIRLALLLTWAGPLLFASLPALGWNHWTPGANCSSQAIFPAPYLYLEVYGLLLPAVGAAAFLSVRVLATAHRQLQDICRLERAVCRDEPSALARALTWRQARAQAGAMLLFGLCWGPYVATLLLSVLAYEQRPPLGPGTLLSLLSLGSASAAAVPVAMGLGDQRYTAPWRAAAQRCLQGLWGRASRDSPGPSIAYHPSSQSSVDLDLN
- Test Method Notes: TGR5/CRE-Luciferiase Assay (HEK 293 hTGR5/CRE-Luc cells)
- Format: cell-based
- Particulars: h-TGR5 CRE-Luc EC50, Table 1; read-out: CRE-Luc (EC50)
Attribute Measured: EC50

Under human TGR5 (h-TGR5) (Homo sapiens, UniProt Q8TDU6): EC50 value of CC(C)(c1ccc(Cl)c(Cl)c1)c1cnc(SCC2CCCN(S(C)(=O)=O)C2)n1-c1ccc(F)cc1 (stereo not shown) ?
100 to 1000 nM

Under human TGR5 (h-TGR5) (Homo sapiens, UniProt Q8TDU6): EC50 value of "COc1cc(C(C)(C)c2cnc(SCc3c(F)cccc3Cl)n2-c2ccc(F)cc2)ccc1Cl" ?
< 100 nM

Under human TGR5 (h-TGR5) (Homo sapiens, UniProt Q8TDU6): EC50 value of "CC(C)(c1ccc(Cl)c(Cl)c1)c1cnc(SCc2ccc(F)c(C(N)=O)c2)n1-c1ccc(F)cc1" ?
100 to 1000 nM

Under human TGR5 (h-TGR5) (Homo sapiens, UniProt Q8TDU6): EC50 value of "COc1cc(-n2c(C(C)(C)c3cccc(S(C)(=O)=O)c3)cnc2SCc2c(F)cc(C(=O)O)cc2F)ccc1F" ?
100 to 1000 nM
